- study.target: Rb 37
- experimental.details: competitive ELISA on antiserum Rb 37; coated antigen not given
Where no end group is shown, it is not given here.
value.type: IC50 (µM)

I = Ac-ISRRLIDRTNANFLC (not fully specified; printed as Ac-25I-S-R-R-L-I-D-R-T-N-A-N-F-L38-C) [GP4]
II = Ac-ISRRLIDRTNANFLVWPPC [GP10]
Compare I and II and name the one whose reported IC50 is smaller. Write down the label of the entry you select.
II
